Molecular target: recombinant human EGFR exon 19 deletion/C797S double mutant protein (Homo sapiens (Human), UniProt P00533, C797S/DEL746-750)
Sequence (P00533 other isoform, or with tags, fused parts or gaps C797S/del 1-668/del 746-750 limits assumed): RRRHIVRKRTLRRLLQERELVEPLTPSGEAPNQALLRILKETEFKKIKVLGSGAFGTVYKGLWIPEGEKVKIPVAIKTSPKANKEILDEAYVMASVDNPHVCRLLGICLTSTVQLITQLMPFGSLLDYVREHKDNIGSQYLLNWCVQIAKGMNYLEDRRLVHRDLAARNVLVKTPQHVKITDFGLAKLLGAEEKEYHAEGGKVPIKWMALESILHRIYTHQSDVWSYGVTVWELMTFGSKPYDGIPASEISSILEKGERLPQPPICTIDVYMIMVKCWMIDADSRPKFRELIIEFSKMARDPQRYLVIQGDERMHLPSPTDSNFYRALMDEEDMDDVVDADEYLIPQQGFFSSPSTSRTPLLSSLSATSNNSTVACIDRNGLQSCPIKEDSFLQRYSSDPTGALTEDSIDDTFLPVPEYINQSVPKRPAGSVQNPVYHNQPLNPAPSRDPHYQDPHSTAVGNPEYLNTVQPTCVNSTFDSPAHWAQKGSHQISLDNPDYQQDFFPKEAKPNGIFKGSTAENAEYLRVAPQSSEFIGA
Assay: Biological Activity Assay C: biochemical assay against EGFR exon 19 deletion/C797S protein (EGFR d19/CS)
measurementType: IC50 (pM)

>  <compound>
O=S1(=O)CC(n2cc(-c3ncnc4[nH]c(-c5ccccc5)nc34)c(-c3ccc(F)cc3)n2)C1 [Example 127]

>  <IC50, pM>
90

$$$$

I = Fc1ccc(-c2nn([C@H]3CCOC[C@H]3F)cc2-c2ncnc3oc(-c4ccccc4)cc23)cc1 (racemic) [Example 184]
II = Cc1nn(C)c(C)c1-c1cc2c(-c3cn(CC(C)(C)O)nc3-c3ccc(F)cc3)ncnc2o1 [Example 252]
III = O=S1(=O)CC(n2cc(-c3ncnc4oc(-c5ccnnc5)cc34)c(-c3ccc(F)cc3)n2)C1 [Example 174]
IV = CC1(C)CC(n2cc(-c3ncnc4oc(-c5ccccc5)cc34)c(-c3ccc(F)cc3)n2)CO1 (racemic) [Example 227]
V = CN(C)C(=O)c1ccccc1-c1cc2c(-c3cn(C4CS(=O)(=O)C4)nc3-c3ccc(F)cc3)ncnc2o1 [Example 228]
Ask: Hello, I need these entries ordered by IC50, highest reading first. Thanks! Could you list the labels in the order requested?
Reply: III, V, IV, I, II

a = CC(C)(O)Cn1cc(-c2ncnc3[nH]c(-c4ccccc4)nc23)c(-c2ccc(F)cc2)n1 [Example 130]
b = CN1CCC(n2cc(-c3ncnc4oc(-c5ccccc5)cc34)c(-c3ccc(F)cc3)n2)C1=O (centres unmarked) [Example 148]
c = O=S1(=O)CCC[C@H](Cn2cc(-c3ncnc4oc(-c5ccccc5)cc34)c(-c3ccc(F)cc3)n2)C1 (single isomer, unassigned) [Example 125]
Ask: Please order the records by their reported IC50, lowest number first. Please write the labels in the order that was asked for.
Reply: a, c, b
(a: 120 pM, c: 210 pM, b: 610 pM)

a = Cc1c(-c2cc3c(-c4cn(CC(C)(C)O)nc4-c4ccc(F)cc4)ncnc3o2)cnn1C [Example 258]
b = C[C@H]1C[C@@H](n2cc(-c3ncnc4oc(-c5ccccc5)cc34)c(-c3ccc(F)cc3)n2)CN1S(C)(=O)=O [Example 198]
Ask: I'm curious whether a or b has the smaller IC50 number. Which is it? Identify your selection by its label.
Reply: a
(a: 160 pM, b: 720 pM)

1 = CN1CCN(c2ccc(-c3nc4c(-c5cn(CCCO)nc5-c5ccc(F)cc5)ncnc4o3)cc2)CC1 [Example 10]
2 = O=S1(=O)CCC[C@@H](Cn2cc(-c3ncnc4oc(-c5ccccc5)cc34)c(-c3ccc(F)cc3)n2)C1 (single isomer, unassigned) [Example 126]
Ask: Lab log: flag the item ( 1 or 2 ) with the smaller IC50 figure. Mark your selection by writing its label.
Reply: 1
(1: 113 pM, 2: 180 pM)

* * *

Biological target: recombinant human EGFR exon 19 deletion/C797S double mutant protein (Homo sapiens (Human), UniProt P00533, C797S/DEL746-750)
Test: Biological Activity Assay C: biochemical assay against EGFR exon 19 deletion/C797S protein (EGFR d19/CS)
measurementType: IC50 (nM)

See these solved cases before continuing.
>  <molecule>
Fc1ccc(-c2nn([C@H]3CCOC3)cc2-c2ncnc3oc(-c4ccccc4)cc23)cc1 (single isomer, unassigned) [Example 91]

>  <measurementType>
IC50

>  <reading>
0.23

$$$$
>  <molecule>
CCC(=O)CCn1cc(-c2ncnc3oc(-c4ccccc4)nc23)c(-c2ccc(F)cc2)n1 [Example 20]

>  <measurementType>
IC50

>  <reading>
4.19

$$$$
>  <molecule>
COc1ncccc1-c1cc2c(-c3cn(CC(C)(C)O)nc3-c3ccc(F)cc3)ncnc2o1 [Example 271]

>  <measurementType>
IC50

>  <reading>
0.252

$$$$
>  <molecule>
O=S1(=O)CC(n2cc(-c3ncnc4oc(-c5cccc(C(F)(F)F)c5)cc34)c(-c3ccc(F)cc3)n2)C1 [Example 169]

>  <measurementType>
IC50

>  <reading>
3.08

$$$$
>  <molecule>
CN1CCN(c2ccc(-c3cc4c(-c5cn(CCCO)nc5-c5ccc(F)cc5)ncnc4[nH]3)cc2)CC1 [Example 19]

>  <measurementType>
IC50

>  <reading>
0.17

$$$$

a = CC(C)(O)CCc1nc(-c2ccc(F)cc2)c(-c2ncnc3oc(-c4ccccc4)cc23)o1 [Example 44]
b = Cc1nn(C)cc1-c1cc2c(-c3cn(C4CS(=O)(=O)C4)nc3-c3ccc(F)cc3)ncnc2o1 [Example 242]
Ask: Between item a and item b , which reported IC50 is smaller? Give the label of your selection.
Reply: b
(b: 0.18 nM, a: 1.79 nM)
